target_system: T1, rat APJ receptor (rat, UniProt Q9JHG3 1-377)
T1 sequence (looked up): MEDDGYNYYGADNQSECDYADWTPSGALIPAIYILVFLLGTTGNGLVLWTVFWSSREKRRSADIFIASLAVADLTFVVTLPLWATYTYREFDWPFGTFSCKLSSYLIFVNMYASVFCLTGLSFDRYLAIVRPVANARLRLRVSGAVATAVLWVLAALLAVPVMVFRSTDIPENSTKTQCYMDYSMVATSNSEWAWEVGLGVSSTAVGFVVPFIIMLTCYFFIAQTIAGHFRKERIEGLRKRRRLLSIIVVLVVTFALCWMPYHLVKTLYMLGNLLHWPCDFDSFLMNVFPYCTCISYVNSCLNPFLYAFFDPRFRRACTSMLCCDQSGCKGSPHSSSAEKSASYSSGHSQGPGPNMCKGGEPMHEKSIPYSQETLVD
procedure_summary: cell-based or functional assay
Starred links: 1 amine or outer side, 2 acyl side, 3 side chain; linkers in the order of their positions; H or OH if unused. Non-standard residues stand in square brackets, D forms with d. Primed or numbered codes have the meaning given here. *: point of attachment. AC4Abu = α-carboxy-4-aminobutyric acid, O=C(C(CCN[*:1])C(=O)[*:3])[*:2]; dBip = N[C@H](Cc1ccc(-c2ccccc2)cc1)C(=O)O; Oic = O=C(O)[C@@H]1C[C@@H]2CCCC[C@@H]2N1; Phe(4-Cl) = N[C@@H](Cc1ccc(Cl)cc1)C(=O)O; dPhe(4-Cl) = N[C@H](Cc1ccc(Cl)cc1)C(=O)O; Phe(4-I) = N[C@@H](Cc1ccc(I)cc1)C(=O)O; γGlu = O=C(O)[C@H](CCC(=O)[*:2])N[*:1]; NMeR = CN[C@@H](CCCNC(=N)N)C(=O)O; Palmitoyl = CCCCCCCCCCCCCCCC(=O)*; Tridecanoyl = CCCCCCCCCCCCC(=O)*; hArg = N=C(N)NCCCC[C@H](N)C(=O)O; β3hF = N[C@H](CC(=O)O)Cc1ccccc1; Cha = N[C@@H](CC1CCCCC1)C(=O)O; NMeL = CN[C@@H](CC(C)C)C(=O)O; αMeL = CC(C)C[C@](C)(N)C(=O)O; αMeP = C[C@@]1(C(=O)O)CCCN1; AC4Abu″ = not defined here; β3hP = O=C(O)C[C@@H]1CCCN1; Pip = O=C(O)[C@@H]1CCCCN1; Nle = CCCC[C@H](N)C(=O)O; Dap = NC[C@H](N)C(=O)O; AEEA = NCCOCCOCC(=O)O; Aib = CC(C)(N)C(=O)O; Nip = nipecotic acid; BLeu = β-leucine; Sar = CNCC(=O)O
Please provide measured EC50 Rat APJ Receptor for the entries that follow.
# output: bare number, implied unit nM

Problem: EC50 Rat APJ Receptor lookup needed for Tridecanoyl-[γGlu][AEEA][AEEA][BLeu]RP[NMeR][αMeL]SHKG[Oic][Nle][αMeP][Phe(4-Cl)]-OH [SEQ ID NO: 388] , thanks.
Result: 0.727

Problem: Next record, please: XXXXXXXQRPRLSHKGPXPF ({TDA}[AC4Abu][Aeea][Aeea][Aeea][Aeea][Aeea][Aeea]QRP[NMeArg]LSHKGP[Nle]P[4-Cl-F]{COOH}) [SEQ ID NO: 398]
Result: 0.116

Problem: Next record, please: Palmitoyl-[AC4Abu][AEEA][AEEA][dQ]RP[NMeR][Cha]SHKG[Oic][Aib][Phe(4-Cl)]-OH (SMILES CCCCCCCCCCCCCCCC(=O)NCCC(C(=O)O)C(=O)NCCOCCOCC(=O)NCCOCCOCC(=O)N[C@H](CCC(N)=O)C(=O)N[C@@H](CCCNC(=N)N)C(=O)N1CCC[C@H]1C(=O)N(C)[C@@H](CCCNC(=N)N)C(=O)N[C@@H](CC1CCCCC1)C(=O)N[C@@H](CO)C(=O)N[C@@H](Cc1c[nH]cn1)C(=O)N[C@@H](CCCCN)C(=O)NCC(=O)N1[C@H](C(=O)NC(C)(C)C(=O)N[C@@H](Cc2ccc(Cl)cc2)C(=O)O)C[C@@H]2CCCC[C@@H]21) [SEQ ID NO: 580]
Result: 0.736

Problem: Next record, please: XXXQRPRLSHKGPXPF ({AdpA}[AC4Abu][Aeea][Aeea]QRP[NMeArg]LSHKGP[Nle]P[4-Cl-F]{COOH}) [SEQ ID NO: 461]
Result: 1

Problem: Next record, please: Ac-QRP[NMeR][Cha]SHKG[Oic][Nle][Aib][Phe(4-Cl)]-OH [SEQ ID NO: 92]
Result: 3.23

Problem: Next record, please: XXXQRPRLSHKGPXPF ({Myristyl-NH}[AC4Abu][Aeea][Aeea]QRP[NMeArg]LSHKGP[Nle]P[4-Cl-F]{COOH}) [SEQ ID NO: 592]
Result: 0.598

Problem: Next record, please: Palmitoyl-[AC4Abu][AEEA][AEEA][dQ]RP[NMeR][αMeL]SHK[Sar][Oic][Nle][β3hP][Phe(4-Cl)]-OH [SEQ ID NO: 641]
Result: 3.66

Problem: Next record, please: Tridecanoyl-[γGlu][AEEA][AEEA][BLeu][hArg]P[NMeR][Cha]SHKG[Oic][Nle]P[dPhe(4-Cl)]-OH [SEQ ID NO: 298]
Result: 24.9

Problem: Next record, please: Palmitoyl-[AC4Abu″][AEEA][AEEA][dQ]RP[NMeR][αMeL]S[Dap]KG[Oic][Nle][β3hP][Phe(4-Cl)]-OH (reading uncertain) [SEQ ID NO: 630]
Result: 0.486

Problem: Next record, please: Tridecanoyl-[γGlu][AEEA][AEEA][BLeu]RP[hArg][BLeu]SHKG[Oic][Nle]P[Phe(4-Cl)]-OH [SEQ ID NO: 395]
Result: 1.02

Problem: Next record, please: XXXQRPRLSHKGPXPF ({Subericacid}[AC4Abu][Aeea][Aeea]QRP[NMeArg]LSHKGP[Nle]P[4-Cl-F]{COOH}) [SEQ ID NO: 508]
Result: 0.467

Problem: Next record, please: Palmitoyl-[AC4Abu][AEEA][AEEA][dQ]RP[NMeR][Cha]SHKG[Pip][Nle][β3hF]-OH (SMILES CCCCCCCCCCCCCCCC(=O)NCCC(C(=O)O)C(=O)NCCOCCOCC(=O)NCCOCCOCC(=O)N[C@H](CCC(N)=O)C(=O)N[C@@H](CCCNC(=N)N)C(=O)N1CCC[C@H]1C(=O)N(C)[C@@H](CCCNC(=N)N)C(=O)N[C@@H](CC1CCCCC1)C(=O)N[C@@H](CO)C(=O)N[C@@H](Cc1c[nH]cn1)C(=O)N[C@@H](CCCCN)C(=O)NCC(=O)N1CCCC[C@H]1C(=O)N[C@@H](CCCC)C(=O)N[C@H](CC(=O)O)Cc1ccccc1) [SEQ ID NO: 579]
Result: 2.5

Problem: Next record, please: Ac-[hArg][dR]Q[hArg]E[dR][NMeL]SHKG[Oic][Phe(4-I)]P[dBip]-OH [SEQ ID NO: 78]
Result: 0.871

Problem: Next record, please: Ac-Q[hArg]P[NMeR][Cha]SHKG[Oic][Nle]P[Phe(4-Cl)]-OH (SMILES CCCC[C@H](NC(=O)[C@@H]1C[C@@H]2CCCC[C@@H]2N1C(=O)CNC(=O)[C@H](CCCCN)NC(=O)[C@H](Cc1c[nH]cn1)NC(=O)[C@H](CO)NC(=O)[C@H](CC1CCCCC1)NC(=O)[C@H](CCCNC(=N)N)N(C)C(=O)[C@@H]1CCCN1C(=O)[C@H](CCCCNC(=N)N)NC(=O)[C@H](CCC(N)=O)NC(C)=O)C(=O)N1CCC[C@H]1C(=O)N[C@@H](Cc1ccc(Cl)cc1)C(=O)O) [SEQ ID NO: 61]
Result: 0.189

Problem: Next record, please: Palmitoyl-[AC4Abu][AEEA][AEEA][dQ]RP[NMeR][Cha]SHKG[Oic][Nle][Nip][Phe(4-Cl)]-OH [SEQ ID NO: 586]
Result: 23

Problem: Next record, please: XXXQRPRLSHKGPXPF ({Acetyl-NH}[AC4Abu][Aeea][Aeea]QRP[NMeArg]LSHKGP[Nle]P[4-Cl-F]{COOH}) [SEQ ID NO: 88]
Result: 0.388
